assay: Half life in mouse; type: ADME, organism-based; conditions: in vivo
Readout Label: half-life
In your response, put the unit directly after the numeric value.

For reference, reported half-life for "N#Cc1ccc(-c2ccc(C[C@@H](C#N)NC(=O)C3(N)CCOCC3)cc2)cc1" stands at 2 h
